# Target Or Test System: T1, Human CD93 recombinant protein (Sino Biological Inc, Catalog #12589-H08H) (human, UniProt Q9NPY3 22-580)
# T1 construct: Biotinylated (EZ-LINK NHS-PEG4 biotin) in the BLI assays; also called hCD93; His-tagged human CD93
# T1 sequence (looked up): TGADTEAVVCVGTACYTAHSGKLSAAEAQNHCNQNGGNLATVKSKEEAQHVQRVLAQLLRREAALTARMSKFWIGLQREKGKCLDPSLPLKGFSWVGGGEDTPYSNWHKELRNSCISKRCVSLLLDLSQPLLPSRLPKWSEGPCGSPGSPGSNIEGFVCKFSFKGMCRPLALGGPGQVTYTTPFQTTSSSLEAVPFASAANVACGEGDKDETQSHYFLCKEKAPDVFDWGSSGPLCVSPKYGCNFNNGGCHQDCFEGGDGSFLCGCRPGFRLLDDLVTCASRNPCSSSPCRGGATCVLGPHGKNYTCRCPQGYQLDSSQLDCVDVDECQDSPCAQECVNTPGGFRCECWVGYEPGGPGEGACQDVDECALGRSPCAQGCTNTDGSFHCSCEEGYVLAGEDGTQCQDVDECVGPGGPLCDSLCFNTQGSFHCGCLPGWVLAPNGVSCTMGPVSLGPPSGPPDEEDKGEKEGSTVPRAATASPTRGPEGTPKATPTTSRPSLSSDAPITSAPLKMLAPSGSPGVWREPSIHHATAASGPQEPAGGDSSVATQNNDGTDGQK
# Test Details: summary table, column ELISA (hCD93)
Quantity Name: EC50 (nM)
// note: answer is a bare numeric in nM

// query EC50 value for entry h7F3 (humanized 7F3, VH3+VL3) (antibody, human IgG1, V domains shown, also called humanized 7F3-hIgG1) VH: QVQLVQSGAEVKKPGASVKVSCKASGYTFTDYEMHWVRQAPGQGLEWMGGIDPETGDTAYNQNFKGRVTMTTDTSTSTAYMELRSLTSDDTAVYYCTNYGNLYYYAMDYWGQGTSVTVSS VL: EIVLTQSPSSLSASVGDRVTITCRASSSVSSSYLHWYQQKPGKAPKLLIYSTSNLAFGVPSRFSGSGSGTSYTFTISSLQPEDIATYYCQQYSGYPLTFGSGTKLEIK
0.0427

Look up EC50 for this binder: 7F3 (hybridoma) (antibody, IgG1, V domains shown, also called 7F3 mAb; 7F3 mIgG1) VH: QVQLQQSGADLVRPGASVKLSCKASGYTFTDYEMHWVKQTPVYGLEWIGGIDPETGDTAYNQNFKGKATLTADKSSSAAYMELRSLTSEDSAVYYCTNYGNLYYYAMDYWGQGTSVTVSS VL: ENVLTQSPAIMSASPGEKVTMTCRASSSVSSSYLHWYQQKSGASPKLWIYSTSNLAFGVPARFSGSGSGTSYSLTISSVEAEDAATYYCQQYSGYPLTFGSGTKLEIK
0.0667

Please give the measured EC50 for this binder: 7F3-hIgG1 (recombinant chimeric 7F3) (antibody, V domains shown, also called chimeric 7F3-hIgG1; recombinant 7F3) VH: QVQLQQSGADLVRPGASVKLSCKASGYTFTDYEMHWVKQTPVYGLEWIGGIDPETGDTAYNQNFKGKATLTADKSSSAAYMELRSLTSEDSAVYYCTNYGNLYYYAMDYWGQGTSVTVSS VL: ENVLTQSPAIMSASPGEKVTMTCRASSSVSSSYLHWYQQKSGASPKLWIYSTSNLAFGVPARFSGSGSGTSYSLTISSVEAEDAATYYCQQYSGYPLTFGSGTKLEIK
0.041

Look up EC50 for this binder: h16E4 (humanized 16E4, VH4+VL6) (antibody, V domains shown, Detected with anti-human IgG, so a human Fc) VH: QVQLVQSGAEVKKPGASVKVSCKASGYTFTSYWMHWVRQAPGQGLEWMGEIDPSASYTYYNQKFKGRVTMTRDKSSSTVYMELSSLTSEDSAVYYCARSVYYGNKYFDVWGAGTTVTVSS VL: DIQMTQSPSTLSASVGDRVTITCKASQSVDYAGDSYMNWYQQKPGKAPKLLIYAASNLESGVPSRFSGSGSGTEFTLTISSLQPDDFATYYCQQTNEDPRTFGGGTKLEIK
0.033
